This collection of values is drawn from BigSolDB 2.1.

Settings: in isopropanol, 293.15 K
value.type: solubility (mole fraction)
Numbers only.

Input: // solubility (mole fraction) lookup, key: O=C(Nc1ccc(F)cc1F)c1cccnc1Oc1cccc(C(F)(F)F)c1
Output: 0.000183

---

Conditions: in ethanol, 283.15 K
value.type: solubility (mole fraction)
One number for each entry.

Input: Sample O=C(Nc1ccc(F)cc1F)c1cccnc1Oc1cccc(C(F)(F)F)c1 — what was its solubility (mole fraction)?
Output: 0.000332

---

Conditions: in isopropanol, 318.15 K
value.type: solubility (mole fraction)
One number for each entry.

Input: # input compound: O=C(Nc1ccc(F)cc1F)c1cccnc1Oc1cccc(C(F)(F)F)c1 ; wanted: its solubility (mole fraction)
Output: 0.00152

---

Details: in ethanol, 313.15 K
value.type: solubility (mole fraction)
Numbers only.

Input: Which value of solubility (mole fraction) has been reported for O=C(Nc1ccc(F)cc1F)c1cccnc1Oc1cccc(C(F)(F)F)c1 in the records?
Output: 0.00139

---

Settings: in isopropanol, 288.15 K
value.type: solubility (mole fraction)
Give bare numbers.

Input: Recorded solubility (mole fraction) of O=C(Nc1ccc(F)cc1F)c1cccnc1Oc1cccc(C(F)(F)F)c1 , please.
Output: 0.000116

---

Conditions: in ethanol, 318.15 K
value.type: solubility (mole fraction)
Give bare numbers.

Input: What does the record list as solubility (mole fraction) for O=C(Nc1ccc(F)cc1F)c1cccnc1Oc1cccc(C(F)(F)F)c1 ?
Output: 0.00173

---

Conditions: in acetone, 278.15 K
value.type: solubility (mole fraction)
Give bare numbers.

Input: What value of measured solubility (mole fraction) is listed for O=C(Nc1ccc(F)cc1F)c1cccnc1Oc1cccc(C(F)(F)F)c1 ?
Output: 0.00903

---

Conditions: in toluene, 313.15 K
value.type: solubility (mole fraction)
Numbers only.

Input: Could you share which solubility (mole fraction) value was measured for O=C(Nc1ccc(F)cc1F)c1cccnc1Oc1cccc(C(F)(F)F)c1 ?
Output: 0.0215

---

Conditions: in ethanol, 288.15 K
value.type: solubility (mole fraction)
Numbers only.

Input: Please report the recorded solubility (mole fraction) for O=C(Nc1ccc(F)cc1F)c1cccnc1Oc1cccc(C(F)(F)F)c1 .
Output: 0.00043

---

Conditions: in isopropanol, 298.15 K
value.type: solubility (mole fraction)
Give bare numbers.

Input: Need solubility (mole fraction) of O=C(Nc1ccc(F)cc1F)c1cccnc1Oc1cccc(C(F)(F)F)c1 , thanks.
Output: 0.000282

---

Conditions: in ethanol, 278.15 K
value.type: solubility (mole fraction)
Numbers only.

Input: Could you tell me which solubility (mole fraction) is on file for O=C(Nc1ccc(F)cc1F)c1cccnc1Oc1cccc(C(F)(F)F)c1 ?
Output: 0.000251

---

Details: in toluene, 303.15 K
value.type: solubility (mole fraction)
One number for each entry.

Input: Find the recorded solubility (mole fraction) belonging to O=C(Nc1ccc(F)cc1F)c1cccnc1Oc1cccc(C(F)(F)F)c1 and report it.
Output: 0.0142

---

Settings: in acetone, 283.15 K
value.type: solubility (mole fraction)

Input: Requested read-out: solubility (mole fraction). Entry: O=C(Nc1ccc(F)cc1F)c1cccnc1Oc1cccc(C(F)(F)F)c1
Output: 0.0107

---

Settings: in acetone, 308.15 K
value.type: solubility (mole fraction)

Input: So what does the record say about solubility (mole fraction) for O=C(Nc1ccc(F)cc1F)c1cccnc1Oc1cccc(C(F)(F)F)c1 ?
Output: 0.0247
